# assay.system: hERG channel (Homo sapiens, UniProt Q12809)
# Construct: expressed in transfected cells; host or cells: CHO (Chinese hamster ovary), CHOhERG
# Sequence (Q12809 whole entry): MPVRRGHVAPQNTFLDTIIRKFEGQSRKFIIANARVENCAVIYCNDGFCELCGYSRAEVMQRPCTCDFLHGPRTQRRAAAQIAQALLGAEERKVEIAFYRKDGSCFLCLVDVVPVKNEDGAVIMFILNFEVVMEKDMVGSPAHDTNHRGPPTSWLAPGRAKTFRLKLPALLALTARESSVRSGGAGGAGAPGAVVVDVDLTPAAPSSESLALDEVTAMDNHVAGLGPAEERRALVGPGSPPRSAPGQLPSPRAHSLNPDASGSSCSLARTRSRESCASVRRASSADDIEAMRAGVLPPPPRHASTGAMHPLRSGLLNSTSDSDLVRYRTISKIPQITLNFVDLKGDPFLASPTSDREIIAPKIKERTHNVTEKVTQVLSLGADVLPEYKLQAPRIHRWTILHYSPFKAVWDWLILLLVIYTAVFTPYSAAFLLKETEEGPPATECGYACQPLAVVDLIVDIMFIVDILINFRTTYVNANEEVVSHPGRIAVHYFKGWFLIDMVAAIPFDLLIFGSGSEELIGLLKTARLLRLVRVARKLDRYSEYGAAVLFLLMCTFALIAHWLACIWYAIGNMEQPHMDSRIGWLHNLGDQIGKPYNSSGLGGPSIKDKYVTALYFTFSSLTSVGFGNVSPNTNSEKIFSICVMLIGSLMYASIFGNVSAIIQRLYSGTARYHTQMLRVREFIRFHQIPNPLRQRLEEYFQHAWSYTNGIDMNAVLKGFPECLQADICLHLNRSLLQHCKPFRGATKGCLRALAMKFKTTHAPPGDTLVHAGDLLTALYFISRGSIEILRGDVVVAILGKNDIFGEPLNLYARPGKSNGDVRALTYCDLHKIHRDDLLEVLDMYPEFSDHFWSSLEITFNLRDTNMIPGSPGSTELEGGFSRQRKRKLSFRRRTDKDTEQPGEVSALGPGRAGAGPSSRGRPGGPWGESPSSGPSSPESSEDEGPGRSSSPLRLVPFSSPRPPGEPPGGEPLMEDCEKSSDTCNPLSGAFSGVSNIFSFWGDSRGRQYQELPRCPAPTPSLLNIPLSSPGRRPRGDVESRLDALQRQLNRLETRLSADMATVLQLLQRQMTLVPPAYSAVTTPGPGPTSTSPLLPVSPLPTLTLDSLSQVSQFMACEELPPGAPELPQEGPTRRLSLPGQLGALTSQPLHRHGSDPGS
# experimental.details: hERG channel inhibition assay (patch-clamp, CHOhERG cells);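 on hERG IC20/TLR7 IC50: ratio above 30 indicates an adequate safety window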
# Format: cell-based
# test.context: safety ratio
quantity.kind: hERG IC20/TLR7 IC50

molecule	endpoint.result
COc1ccc(N2CCN(C[C@H]3CN(c4ccc(C#N)c5ncccc45)C[C@@H](C)O3)CC2)cc1 [Example R1, reference compound]	9.3
Cc1cc(N2CC(NC[C@H]3CN(c4ccc(C#N)c5ncccc45)C[C@@H](C)O3)C2)cc(CO)n1 [Example 30]	69.4
Cc1cc(NC2CCN(C[C@H]3CN(c4ccc(C#N)c5ncccc45)C[C@@H](C)O3)C2)cc(CO)n1 (stereo partly shown) [Example 6]	132.4
CC(O)c1cc(N2CC3(CN(C[C@H]4CN(c5ccc(C#N)c6ncccc56)C[C@@H](C)O4)C3)C2)ccn1 (stereo partly shown) [Example 46]	146.6

* * *

Recorded measurements of pIC50, one per entry
# assay.system: human TLR8 (Homo sapiens, UniProt Q9NR97)
# Sequence (Q9NR97 27-1041): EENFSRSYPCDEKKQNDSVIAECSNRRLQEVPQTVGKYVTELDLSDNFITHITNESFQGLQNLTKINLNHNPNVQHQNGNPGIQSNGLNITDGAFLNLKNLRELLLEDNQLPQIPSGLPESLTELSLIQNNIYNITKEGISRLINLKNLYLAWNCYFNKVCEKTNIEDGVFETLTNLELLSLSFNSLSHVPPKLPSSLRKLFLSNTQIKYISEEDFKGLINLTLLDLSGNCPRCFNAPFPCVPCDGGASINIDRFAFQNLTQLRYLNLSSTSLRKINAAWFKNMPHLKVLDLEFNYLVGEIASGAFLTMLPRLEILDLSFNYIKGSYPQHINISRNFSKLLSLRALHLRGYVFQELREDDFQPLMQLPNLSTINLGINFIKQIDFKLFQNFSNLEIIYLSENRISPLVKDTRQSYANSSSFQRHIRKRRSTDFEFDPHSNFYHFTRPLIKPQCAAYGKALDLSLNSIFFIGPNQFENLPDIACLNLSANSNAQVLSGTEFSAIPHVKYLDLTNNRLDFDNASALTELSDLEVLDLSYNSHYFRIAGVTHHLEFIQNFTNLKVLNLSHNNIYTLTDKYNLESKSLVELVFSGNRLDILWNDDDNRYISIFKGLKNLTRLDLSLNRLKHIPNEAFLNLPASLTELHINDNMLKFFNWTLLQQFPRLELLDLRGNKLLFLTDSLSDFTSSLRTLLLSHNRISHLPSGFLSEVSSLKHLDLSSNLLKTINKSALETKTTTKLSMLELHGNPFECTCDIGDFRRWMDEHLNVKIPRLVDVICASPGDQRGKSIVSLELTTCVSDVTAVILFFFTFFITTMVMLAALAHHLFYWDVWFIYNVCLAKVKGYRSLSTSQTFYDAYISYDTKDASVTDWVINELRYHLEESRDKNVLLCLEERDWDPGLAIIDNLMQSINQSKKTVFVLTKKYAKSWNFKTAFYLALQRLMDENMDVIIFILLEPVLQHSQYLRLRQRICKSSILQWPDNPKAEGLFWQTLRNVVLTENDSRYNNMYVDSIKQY
# experimental.details: HEK293-Blue-hTLR-8 cells assay
# test.context: HEK293-Blue-hTLR8 cells, R848 stimulation, 20 hrs, SEAP reporter; read-out: HEK/hTLR8 IC50
pIC50: −log10 of the molar value.

compound	assay.system	pIC50
Cc1cc(N2CCOC3(CN(C[C@H]4CN(c5ccc(C#N)c6ncccc56)C[C@@H](C)O4)C3)C2)ccn1 [Example 16]	human TLR8 (Homo sapiens, UniProt Q9NR97)	> 8.52
Cc1cc(N2CCOC3(CN(C[C@H]4CN(c5ccc(C#N)c6ncccc56)C[C@@H](C)O4)C3)C2)cc(C)n1 [Example 14]	human TLR8 (Homo sapiens, UniProt Q9NR97)	> 8.52
Cc1cc(N2CCN(C[C@H]3CN(c4ccc(C#N)c5ncccc45)C[C@@H](C)O3)CC2)cc(N)n1 [Example 40]	human TLR8 (Homo sapiens, UniProt Q9NR97)	> 8.52

* * *

# assay.system: hERG channel (Homo sapiens)
# Construct: expressed in transfected cells; host or cells: CHO (Chinese hamster ovary), CHOhERG
# experimental.details: hERG channel inhibition assay (patch-clamp, CHOhERG cells);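 on hERG IC20/TLR8 IC50: ratio above 30 indicates an adequate safety window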
# Format: cell-based
# test.context: safety ratio
hERG IC20/TLR8 IC50 reference

smi	hERG IC20/TLR8 IC50
Cc1cc(N2CC3(CN(C[C@H]4CN(c5ccc(C#N)c6ncccc56)C[C@@H](C)O4)C3)C2)cc(CO)n1	>123.5
Cc1cc(NC2CN(C[C@H]3CN(c4ccc(C#N)c5ncccc45)C[C@@H](C)O3)C2)cc(C)n1	>322.6
C[C@@H]1CN(c2ccc(C#N)c3ncccc23)C[C@H](CN2CCN(c3cc(N)nc(CO)c3)CC2)O1	>714.3

* * *

# assay.system: hERG channel (Homo sapiens, UniProt Q12809)
# Construct: expressed in transfected cells; host or cells: CHO (Chinese hamster ovary), CHOhERG
# experimental.details: hERG channel inhibition assay (patch-clamp, CHOhERG cells)
# Format: cell-based
# test.context: safety ratio
quantity.kind: hERG IC20/TLR9 IC50

compound	relational.operator	endpoint.result
C[C@@H]1CN(c2ccc(C#N)c3ncccc23)C[C@H](CN2CCN(c3cc(N)nc(CO)c3)CC2)O1	>	109.9
C[C@@H]1CN(c2ccc(C#N)c3ncccc23)C[C@H](CN2CCN(c3ccccc3)CC2)O1 [ER-887258, reference compound]	=	0.3
Cc1cc(N2CC(NC[C@H]3CN(c4ccc(C#N)c5ncccc45)C[C@@H](C)O3)C2)cc(CO)n1	=	51.2
COc1ccc(N2CCN(C[C@H]3CN(c4ccc(C#N)c5ncccc45)C[C@@H](C)O3)CC2)cc1 [Example R1, reference compound]	=	0.1
C[C@@H]1CN(c2ccc(C#N)c3ncccc23)C[C@H](CN2CCN(c3ccncc3)CC2)O1 [ER-888286, reference compound]	=	0.2
Cc1cc(NC2CCN(C[C@H]3CN(c4ccc(C#N)c5ncccc45)C[C@@H](C)O3)CC2)cc(CO)n1	=	224.5
Cc1cc(N2CC3(CN(C[C@H]4CN(c5ccc(C#N)c6ncccc56)C[C@@H](C)O4)C3)C2)cc(CO)n1	>	294.1
C[C@@H]1CN(c2ccc(C#N)c3ncccc23)C[C@H](CN2CCN(c3ccc(Cl)cc3)CC2)O1 [Example R2, reference compound]	=	0.0
Cc1cc(NC2CN(C[C@H]3CN(c4ccc(C#N)c5ncccc45)C[C@@H](C)O3)C2)cc(C)n1	>	256.4
C[C@@H]1CN(c2ccc(C#N)c3ncccc23)C[C@H](CN2CCN(c3ccccn3)CC2)O1 [ER-888285, reference compound]	=	0.5

* * *

# assay.system: hERG channel (Homo sapiens)
# Construct: expressed in transfected cells; host or cells: CHO (Chinese hamster ovary), CHOhERG
# experimental.details: hERG channel inhibition assay (patch-clamp, CHOhERG cells)
# Type: cell-based
# test.context: human, CHO cells stably expressing hERG (CHOhERG); CHOhERG cells, whole-cell patch-clamp

smi	IC20
Cc1cc(N2CC3(CN(C[C@H]4CN(c5ccc(C#N)c6ncccc56)C[C@@H](C)O4)C3)C2)cc(CO)n1	> 10 µM
C[C@@H]1CN(c2ccc(C#N)c3ncccc23)C[C@H](CN2CCN(c3cc(N)nc(CO)c3)CC2)O1	> 10 µM
Cc1cc(NC2CN(C[C@H]3CN(c4ccc(C#N)c5ncccc45)C[C@@H](C)O3)C2)cc(C)n1	> 10 µM

* * *

# assay.system: hERG channel (Homo sapiens)
# Construct: expressed in transfected cells; host or cells: CHO (Chinese hamster ovary), CHOhERG
# experimental.details: hERG channel inhibition assay (patch-clamp, CHOhERG cells);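 on hERG IC20/TLR7 IC50: ratio above 30 indicates an adequate safety window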
# Format: cell-based
# test.context: safety ratio

smi	hERG IC20/TLR7 IC50
C[C@@H]1CN(c2ccc(C#N)c3ncccc23)C[C@H](CN2CCN(c3cc(N)nc(CO)c3)CC2)O1	>256.4
Cc1cc(N2CC3(CN(C[C@H]4CN(c5ccc(C#N)c6ncccc56)C[C@@H](C)O4)C3)C2)cc(CO)n1	>357.1
Cc1cc(NC2CN(C[C@H]3CN(c4ccc(C#N)c5ncccc45)C[C@@H](C)O3)C2)cc(C)n1	>384.6

* * *

Measured Clearance of Human microsome by item
# experimental.details: Human microsome stability assay
# Type: in vitro ADME
# test.context: 1 μM test compound, 0.5 mg/mL liver microsomal protein, 37° C.

compound	Clearance of Human microsome / mL/min/kg
Cc1cc(N2CC(NC[C@H]3CN(c4ccc(C#N)c5ncccc45)C[C@@H](C)O3)C2)cc(CO)n1	7.14
Cc1cc(N2CCN(C[C@H]3CN(c4ccc(C#N)c5ncccc45)C[C@@H](C)O3)CC2)cc(N)n1	6.15
COc1ccc(N2CCN(C[C@H]3CN(c4ccc(C#N)c5ncccc45)C[C@@H](C)O3)CC2)cc1 [Example R1, reference compound]	10.84
Cc1cc(N2CCC3(CN(C[C@H]4CN(c5ccc(C#N)c6ncccc56)C[C@@H](C)O4)C3)C2)cc(C)n1	6.15
Cc1cc(N2CC3(CN(C[C@H]4CN(c5ccc(C#N)c6ncccc56)C[C@@H](C)O4)C3)C2)cc(C(C)O)n1 (some centres unmarked)	7.21
C[C@@H]1CN(c2ccc(C#N)c3ncccc23)C[C@H](CNC2CCN(c3ccnc(N)c3)CC2)O1	6.15
Cc1cc(NC2CCN(C[C@H]3CN(c4ccc(C#N)c5ncccc45)C[C@@H](C)O3)C2)cc(CO)n1 (some centres unmarked)	6.15
Cc1cc(N2CC[C@H](NC[C@H]3CN(c4ccc(C#N)c5ncccc45)C[C@@H](C)O3)[C@@H](O)C2)cc(CO)n1	7.72

* * *

# assay.system: human TLR8 (Homo sapiens)
# experimental.details: HEK293-Blue-hTLR-8 cells assay
# test.context: HEK293-Blue-hTLR8 cells, R848 stimulation, 20 hrs, SEAP reporter; read-out: HEK/hTLR8 IC50
I'd appreciate it if you marked entries true when IC50 is lower than 4 nM and false when it is not.

molecule	assay.system	discrete.label
C[C@@H]1CN(c2ccc(C#N)c3ncccc23)C[C@H](CN2CCN(c3ccnc(N)c3)CC2)O1 [Example 19]	human TLR8 (Homo sapiens)	true
CNc1cc(N2CCN(C[C@H]3CN(c4ccc(C#N)c5ncccc45)C[C@@H](C)O3)CC2)cc(C)n1 [Example 42]	human TLR8 (Homo sapiens)	true
C[C@@H]1CN(c2ccc(C#N)c3ncccc23)C[C@H](CN[C@@H]2CCCN(c3ccnc(N)c3)C2)O1 [Example 21]	human TLR8 (Homo sapiens)	false
Cc1cc(N(C)C2CN(C[C@H]3CN(c4ccc(C#N)c5ncccc45)C[C@@H](C)O3)C2)cc(C)n1 [Example 11]	human TLR8 (Homo sapiens)	false
Cc1cc(NC2CCN(C[C@H]3CN(c4ccc(C#N)c5ncccc45)C[C@@H](C)O3)C2)cc(CO)n1 (some centres unmarked) [Example 6]	human TLR8 (Homo sapiens)	false
Cc1cc(NC2CCN(C[C@H]3CN(c4ccc(C#N)c5ncccc45)C[C@@H](C)O3)CC2)cc(CO)n1 [Example 5]	human TLR8 (Homo sapiens)	false
Cc1cc(N2CCC23CN(C[C@H]2CN(c4ccc(C#N)c5ncccc45)C[C@@H](C)O2)C3)cc(C)n1 [Example 8]	human TLR8 (Homo sapiens)	false
Cc1cc(N2CC3(CN(C[C@H]4CN(c5ccc(C#N)c6ncccc56)C[C@@H](C)O4)C3)C2)cc(CO)n1 [Example 1]	human TLR8 (Homo sapiens)	false
C[C@@H]1CN(c2ccc(C#N)c3ncccc23)C[C@H](CN2CC3(C2)CN(c2ccnc(C4CC4)c2)C3)O1 [Example 49]	human TLR8 (Homo sapiens)	false
Cc1cc(N2CC[C@H](F)[C@H](NC[C@H]3CN(c4ccc(C#N)c5ncccc45)C[C@@H](C)O3)C2)cc(CO)n1 [Example 33]	human TLR8 (Homo sapiens)	false
Cc1cc(N2CCC23CN(C[C@H]2CN(c4ccc(C#N)c5ncccc45)C[C@@H](C)O2)C3)ccn1 [Example 15]	human TLR8 (Homo sapiens)	false
Cc1cc(N2CC(NC[C@H]3CN(c4ccc(C#N)c5ncccc45)C[C@@H](C)O3)CC(F)(F)C2)cc(CO)n1 (some centres unmarked) [Example 36]	human TLR8 (Homo sapiens)	false
Cc1cc(N2CCOC3CN(CC4CN(c5ccc(C#N)c6ncccc56)CC(C)O4)CC32)cc(C)n1 (single isomer, unassigned) [Example 17B]	human TLR8 (Homo sapiens)	true
Cc1cc(N2CCOC3CN(CC4CN(c5ccc(C#N)c6ncccc56)CC(C)O4)CC32)cc(C)n1 (single isomer, unassigned) [Example 17A]	human TLR8 (Homo sapiens)	true
C[C@@H]1CN(c2ccc(C#N)c3ncccc23)C[C@H](CN2CC3(C2)CN(c2ccnc(C4CC4)c2)CCO3)O1 [Example 3]	human TLR8 (Homo sapiens)	true
Cc1cc(N2CCN(C[C@H]3CN(c4ccc(C#N)c5ncccc45)C[C@@H](C)O3)[C@@H](C)C2)cc(CO)n1 [Example 4A]	human TLR8 (Homo sapiens)	false
Cc1cc(N2CC(N(C)C[C@H]3CN(c4ccc(C#N)c5ncccc45)C[C@@H](C)O3)C2)cc(CO)n1 [Example 37]	human TLR8 (Homo sapiens)	true
C[C@@H]1CN(c2ccc(C#N)c3ncccc23)C[C@H](CN2CC3(C2)CN(c2ccnc(CO)c2)CCO3)O1 [Example 51]	human TLR8 (Homo sapiens)	true
